Reference source: PubChem BioAssay (EPA / NIEHS)

test: Tanguay_ZF_120hpf_EYE_legacy: (Legacy) Oregon State University Tanguay Lab 120 Hour Post-fertilization zebrafish Assay for Eye Malformation (AID 2283636);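 further: binary presence or absence of eye malformation scored by brightfield in 120 hpf larvae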
Records with an inconclusive call do not appear. Calls of active or inactive are those of the source. How the source made its calls: active means hit-call score of the fitted dose curve at least 0.9, where 1 is the maximum; inconclusive means response in the unintended direction; inactive means score below 0.9.
The reply should name one outcome from active, inactive

Some entries whose results are on file:
[Q] Given `CN=C=S` , state the outcome it received in this test.
[A] inactive

[Q] Now the same for CCN(CC)C(=O)C(C)Oc1cccc2ccccc12 (stereo not drawn)
[A] inactive

[Q] Now the same for `CN/C(=N\[N+](=O)[O-])NCc1cnc(Cl)s1`
[A] inactive

---
[Q] Given COCc1cnc(C2=NC(C)(C(C)C)C(=O)N2)c(C(=O)O)c1 (stereo not drawn) , state the outcome it received in this test.
[A] inactive

[Q] Now the same for `CCOP(=O)(OCC)Oc1nc(Cl)c(Cl)cc1Cl`
[A] inactive

[Q] Now the same for `C=CCOC(=O)C(C)(C)OC(=O)c1cc(-n2c(=O)cc(C(F)(F)F)n(C)c2=O)ccc1Cl`
[A] inactive

[Q] Now the same for `CCNC(=O)NC(=O)C(C#N)=NOC`
[A] active

----------
molecular target: X-box-binding protein 1 (Homo sapiens) (UniProt P17861); assay: ATG_Xbp1_CIS: Attagene CIS-FACTORIAL HepG2 Assay for human X-box Binding Protein 1 (XBP1) (AID 2282972); conditions: HepG2 XBP1 cis-element reporter, Attagene multiplex; actives raise or lower the signal
Sequence (P17861 whole entry, looked up): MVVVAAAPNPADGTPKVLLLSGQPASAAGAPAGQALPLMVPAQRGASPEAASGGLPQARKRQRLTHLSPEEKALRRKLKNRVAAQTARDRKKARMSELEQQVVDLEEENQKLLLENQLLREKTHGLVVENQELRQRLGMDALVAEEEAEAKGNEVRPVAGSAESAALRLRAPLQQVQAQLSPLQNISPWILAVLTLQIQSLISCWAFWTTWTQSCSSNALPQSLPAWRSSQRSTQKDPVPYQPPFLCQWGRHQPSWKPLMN
Activity calls are given as the source filed them. The calls were made as follows: active = hit-call score of the fitted dose curve at least 0.9, where 1 is the maximum; inactive = score below 0.9.
assay_endpoint: AC50

Check out these entries, answers already filled in.
[Q] Entry `OC(c1ccc(Cl)cc1)(c1ccc(Cl)cc1)C(Cl)(Cl)Cl` : reported AC50 = ?
[A] inactive

[Q] Now the same for `CS(=O)(=O)c1cc(C(F)(F)F)ccc1C(=O)c1cnoc1C1CC1`
[A] inactive

[Q] Now the same for `CCOP(=S)(OCC)Oc1nc(Cl)n(C(C)C)n1`
[A] inactive

[Q] Now the same for `CN=C=S`
[A] inactive

[Q] Now the same for `COP(=S)(OC)Oc1ccc([N+](=O)[O-])c(C)c1`
[A] 50 µM (active)

Here is another compound to look at.
[Q] Entry CC1(C)C(C(=O)OC(C#N)c2cccc(Oc3ccccc3)c2)C1(C)C (stereo unspecified) : reported AC50 = ?
[A] inactive

----------
biological target: human Muscarinic, M4 Receptor, CHRM4 (gene 1132) (UniProt P08173); test: NVS_GPCR_hM4: NovaScreen (NVS) G Protein-Coupled Receptor Assay for human Muscarinic, M4 Receptor (AID 2283274)
Sequence (P08173 whole entry, looked up): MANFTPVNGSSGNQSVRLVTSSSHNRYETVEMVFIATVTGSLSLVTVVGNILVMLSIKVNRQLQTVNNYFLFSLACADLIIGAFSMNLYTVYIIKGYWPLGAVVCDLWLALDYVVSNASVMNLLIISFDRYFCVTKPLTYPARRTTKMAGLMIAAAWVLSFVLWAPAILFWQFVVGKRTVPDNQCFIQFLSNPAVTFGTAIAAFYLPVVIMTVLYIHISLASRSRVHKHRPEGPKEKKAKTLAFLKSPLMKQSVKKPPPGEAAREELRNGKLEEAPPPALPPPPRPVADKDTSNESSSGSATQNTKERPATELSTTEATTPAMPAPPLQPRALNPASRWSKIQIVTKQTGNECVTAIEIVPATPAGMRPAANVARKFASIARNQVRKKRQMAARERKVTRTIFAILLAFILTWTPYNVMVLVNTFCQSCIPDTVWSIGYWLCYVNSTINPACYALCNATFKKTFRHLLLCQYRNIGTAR
Records with an inconclusive call do not appear. Calls of active or inactive are those of the source. The calls were made as follows: active = hit-call score of the fitted dose curve at least 0.9, where 1 is the maximum; inconclusive = response in the unintended direction; inactive = score below 0.9.
The reply should name one outcome from active, inactive

[Q] Given CC(C)(C)C(=O)C(Oc1ccc(Cl)cc1)n1cncn1 (stereo not given) , state the outcome it received in this test.
[A] inactive

[Q] Now the same for `Cc1cc(C)nc(Nc2ccccc2)n1`
[A] active

[Q] Now the same for `Cc1ccc(N=CN(C)C=Nc2ccc(C)cc2C)c(C)c1`
[A] inactive

[Q] Now the same for `N#Cc1c(Cl)cccc1Cl`
[A] inactive

Shifting focus to the molecule that follows.
[Q] Given `Cn1c(-c2ccccc2)cc(-c2ccccc2)[n+]1C` , state the outcome it received in this test.
[A] active

----------
read-out: CYP2C8 (gene 1558); assay: LTEA_HepaRG_CYP2C8: Life Technologies and Expression Analysis (LTEA) Assay for CYP2C8 using HepaRG (AID 2283483); conditions: mRNA level, 48 h; actives raise or lower the signal
Active and inactive are the calls of the source. How the source made its calls: active means hit-call score of the fitted dose curve at least 0.9, where 1 is the maximum; inactive means score below 0.9.
The reply should name one outcome from True (active), False (inactive)

Some entries whose results are on file:
[Q] Given `C=C(C)CN(CC)c1c([N+](=O)[O-])cc(C(F)(F)F)cc1[N+](=O)[O-]` , state the outcome it received in this test.
[A] False

[Q] Now the same for `O=c1n(Cl)c(=O)n(Cl)c(=O)n1Cl`
[A] False

---
[Q] Given `Clc1cccc(C(Cl)(Cl)Cl)n1` , state the outcome it received in this test.
[A] False

[Q] Now the same for `O=C(Nc1ccccc1-c1ccc(Cl)cc1)c1cccnc1Cl`
[A] False

[Q] Now the same for `Nc1c(Cl)c(F)nc(OCC(=O)O)c1Cl`
[A] False

[Q] Now the same for COCC(C)N(C(=O)CCl)c1c(C)csc1C (stereo not given)
[A] False

[Q] Now the same for `COc1cc(Cl)c(OC)cc1Cl`
[A] False

[Q] Now the same for `CC1(C)CON(Cc2ccccc2Cl)C1=O`
[A] True

[Q] Now the same for CC1(C)C(C(=O)OC(C#N)c2cccc(Oc3ccccc3)c2)C1(C)C (stereo not given)
[A] False

[Q] Now the same for `CO/N=C(/C1=NOCCO1)c1ccccc1Oc1ncnc(Oc2ccccc2Cl)c1F`
[A] True

[Q] Now the same for CCNP(=S)(OC)O/C(C)=C/C(=O)OC(C)C (stereo not given)
[A] True

[Q] Now the same for `Cc1ccc(N=CN(C)C=Nc2ccc(C)cc2C)c(C)c1`
[A] False

[Q] Now the same for `CC(C)Nc1nc(Cl)nc(NC(C)C)n1`
[A] False

[Q] Now the same for `CC(C)N1C(=O)c2ccccc2NS1(=O)=O`
[A] False

[Q] Now the same for CCOC(=O)C(C)OC(=O)c1cc(Oc2ccc(C(F)(F)F)cc2Cl)ccc1[N+](=O)[O-] (stereo not given)
[A] True
